biological target: ALK3 (BMPR1a) (Homo sapiens (Human), UniProt P36894)
Sequence (P36894 24-532): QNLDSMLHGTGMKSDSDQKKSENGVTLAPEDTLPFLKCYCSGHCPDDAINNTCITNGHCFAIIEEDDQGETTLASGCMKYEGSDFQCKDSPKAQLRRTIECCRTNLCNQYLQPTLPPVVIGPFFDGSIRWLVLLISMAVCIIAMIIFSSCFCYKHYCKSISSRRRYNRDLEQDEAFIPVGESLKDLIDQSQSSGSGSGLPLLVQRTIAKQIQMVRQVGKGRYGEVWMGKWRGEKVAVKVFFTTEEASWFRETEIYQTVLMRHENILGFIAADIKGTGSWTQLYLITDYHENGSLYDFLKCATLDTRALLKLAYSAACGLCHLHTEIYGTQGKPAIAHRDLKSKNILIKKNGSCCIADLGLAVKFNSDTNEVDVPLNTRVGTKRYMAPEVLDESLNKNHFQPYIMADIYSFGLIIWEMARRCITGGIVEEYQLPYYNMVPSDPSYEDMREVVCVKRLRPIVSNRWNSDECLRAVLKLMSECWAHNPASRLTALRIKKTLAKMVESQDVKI
Observed property: IC50 (nM)
Answer format: numeric, nM implied, no suffix.

Find the recorded IC50 belonging to N#CCNC(=O)c1ccc(-c2ccnc(Nc3ccc(N4CCOCC4)cc3)n2)cc1 [CYT-0387] and report it.
405

###

target: ALK2 (Acvr1) (Homo sapiens (Human))
Sequence (Q04771 21-509): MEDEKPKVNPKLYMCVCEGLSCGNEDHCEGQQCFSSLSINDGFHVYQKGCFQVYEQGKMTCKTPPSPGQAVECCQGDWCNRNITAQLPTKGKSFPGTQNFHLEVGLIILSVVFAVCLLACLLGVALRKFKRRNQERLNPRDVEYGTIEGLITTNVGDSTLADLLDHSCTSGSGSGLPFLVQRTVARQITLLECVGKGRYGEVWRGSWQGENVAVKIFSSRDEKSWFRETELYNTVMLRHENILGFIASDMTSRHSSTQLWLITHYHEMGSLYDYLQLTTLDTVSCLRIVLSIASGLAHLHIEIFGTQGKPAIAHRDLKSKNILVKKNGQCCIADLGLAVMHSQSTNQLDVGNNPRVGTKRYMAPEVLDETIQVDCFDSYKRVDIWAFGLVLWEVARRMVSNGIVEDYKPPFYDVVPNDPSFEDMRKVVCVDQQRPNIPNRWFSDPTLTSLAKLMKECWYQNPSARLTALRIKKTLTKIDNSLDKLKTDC
Observed property: IC50
Number plus unit, in that order.

Need IC50, item N#CCNC(=O)c1ccc(-c2ccnc(Nc3ccc(N4CCOCC4)cc3)n2)cc1
8 nM

###

target: ALK6 (BMPR1B) (Homo sapiens (Human), UniProt O00238)
Sequence (O00238 14-502): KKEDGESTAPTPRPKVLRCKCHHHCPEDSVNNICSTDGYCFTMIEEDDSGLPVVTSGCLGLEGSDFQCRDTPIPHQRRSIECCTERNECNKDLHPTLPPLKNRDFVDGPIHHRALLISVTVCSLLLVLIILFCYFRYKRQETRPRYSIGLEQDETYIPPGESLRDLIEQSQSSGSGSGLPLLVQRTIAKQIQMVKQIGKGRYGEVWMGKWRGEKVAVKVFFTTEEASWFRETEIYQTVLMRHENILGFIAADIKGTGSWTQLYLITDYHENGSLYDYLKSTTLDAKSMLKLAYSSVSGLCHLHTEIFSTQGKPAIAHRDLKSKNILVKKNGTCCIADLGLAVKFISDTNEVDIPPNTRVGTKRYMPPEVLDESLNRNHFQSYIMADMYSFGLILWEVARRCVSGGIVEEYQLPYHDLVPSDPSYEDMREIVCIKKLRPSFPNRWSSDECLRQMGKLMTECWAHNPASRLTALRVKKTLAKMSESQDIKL
Observed property: Kd (µM)
Output spec: scalar in µM, unitless text.

Given the entry N#CCNC(=O)c1ccc(-c2ccnc(Nc3ccc(N4CCOCC4)cc3)n2)cc1 , report its measured Kd.
0.019

###

assay: Mass balance/recovery, metabolite profile, pharmacokinetics and safety of radiolabeled CYT-0387; type: in vivo, human; conditions: plasma
Observed property: share of circulating radioactivity (%)
Report the figure in % without appending any unit label.

Before answering, review these 2 worked examples.
N#CCNC(=O)c1ccc(-c2ccnc(Nc3ccc(N4CCOCC4=O)cc3)n2)cc1 [Compound M21] ... 64.2
N#CCNC(=O)c1ccc(-c2ccnc(Nc3ccc(N4CCOCC4)cc3)n2)cc1 [CYT-0387] ... 17.3

Param item = CC(=O)Nc1ccc(Nc2nccc(-c3ccc(C(=O)NCC#N)cc3)n2)cc1 [Compound M20] ; retrieve measured share of circulating radioactivity.
2.3

Another compound: NC(=O)CNC(=O)c1ccc(-c2ccnc(Nc3ccc(N4CCOCC4=O)cc3)n2)cc1 [Compound M8]
5.8
